# target or test system: UniProt O43613
# assay remarks: Human orexin 1 receptor radioligand binding
# condition info: CHO cells stably expressing human orexin 1 receptor; competitive radioligand binding, apparent Ki; read-out: hOX1 Ki
Reported pKi values follow for various compounds
Expect pKi as a plain number equal to -log10 of the molar concentration.

Take a look at these entries with their results.
{"compound": "Cc1cccc(C(=O)N2C[C@H]3C[C@@H](Nc4ccc(C(F)(F)F)cn4)[C@@H]2C3)c1-n1nccn1", "pKi": 8.52}
{"compound": "O=C(c1ccccc1-n1nccn1)N1CC2CC(Oc3ccc(C(F)(F)F)cn3)C1C2 (racemic)", "pKi": 7.92}

// lookup pKi for O=C(c1c(F)cccc1-n1nccn1)N1C[C@H]2C[C@@H](Oc3ccc(C(F)(F)F)cn3)[C@@H]1C2
7.92

Which pKi value is on record for O=C(c1ccccc1-n1nccn1)N1C[C@H]2C[C@@H](Nc3ccc(C(F)(F)F)cn3)[C@@H]1C2 ?
8.52

---

# target or test system: human orexin 1 receptor (Homo sapiens, UniProt O43613)
# assay remarks: Human orexin 1 receptor radioligand binding
# condition info: CHO cells stably expressing human orexin 1 receptor; competitive radioligand binding, apparent Ki; read-out: hOX1 Ki
recorded endpoint: Ki

If you can, please state the reported Ki value of Cc1ccc(C(=O)N2C[C@H]3C[C@@H](Oc4ccc(C(F)(F)F)cn4)[C@@H]2C3)c(-n2ccnn2)n1 .
462 nM

Request the reported Ki associated with O=C(c1cccc(F)c1-c1ncccn1)N1C[C@H]2C[C@@H](Oc3ccc(Br)cn3)[C@@H]1C2
6 nM

---

Listed compounds paired with reported pKi
# target or test system: rat orexin 1 receptor (Rattus norvegicus, UniProt P56718)
# assay remarks: Rat orexin 1 receptor radioligand binding
# condition info: HEK293 cells stably expressing rat orexin 1 receptor; competitive radioligand binding, apparent Ki; read-out: rOX1 Ki
In plain terms, pKi is the concentration in mol/L turned into minus its base-10 logarithm.

Past entries and their recorded results:
{"compound": "O=C(c1cccc(F)c1-n1nccn1)N1CC2CC(Oc3ccc(C(F)(F)F)cn3)C1C2 (racemic)", "pKi": 8.10}
{"compound": "O=C(c1ccccc1-n1nccn1)N1C[C@H]2C[C@@H](Nc3cnc(C(F)(F)F)cn3)[C@@H]1C2", "pKi": 8.22}

I am curious: what pKi value has been reported for COc1cccc(-c2ncccn2)c1C(=O)N1C[C@H]2C[C@@H](Oc3ccc(C(F)(F)F)cn3)[C@@H]1C2 ?
7.80

---

# target or test system: human orexin 1 receptor (Homo sapiens)
# assay remarks: Human orexin 1 receptor radioligand binding
# condition info: CHO cells stably expressing human orexin 1 receptor; competitive radioligand binding, apparent Ki; read-out: hOX1 Ki
recorded endpoint: Ki (nM)
Output spec: scalar in nM, unitless text.

Completed entries (count: 2):
{"compound": "O=C(c1ccc(F)cc1-n1nccn1)N1C[C@H]2C[C@@H](Oc3ccc(C(F)(F)F)cn3)[C@@H]1C2 [Example 44]", "Ki / nM": 42}
{"compound": "O=C(c1cc(F)ccc1-n1nccn1)N1C[C@H]2C[C@@H](Nc3ccc(C(F)(F)F)cn3)[C@@H]1C2 [Example 57]", "Ki / nM": 5}

Now look at this one.
For COc1cccc(-c2ccn[nH]2)c1C(=O)N1C[C@H]2C[C@@H](Oc3ccc(C(F)(F)F)cn3)[C@@H]1C2 [Example 39] , what is its reported Ki?
17
